Tested on: TRPC4 beta (transient receptor potential cation channel C4), mouse
Test: positive allosteric modulators of mouse TRPC4, confirmation, cell-based, Fluo-4, HEK293 TRPC4beta/mu-opioid (AID 2555)
Details: DAMGO EC20, Fluo-4 calcium flux, at 10 µM
Activity calls are given as the source filed them.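 Rule for the calls: active = primary screen hit whose calcium fluorescence ratio, in both repeats, exceeds the weak agonist control mean by 3 SD; inactive = the rest.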
Please answer using one outcome listed in active, inactive

Look over these answered cases.
[
  {
    "compound": "CN(C)C(CNC(=S)Nc1cccc(Cl)c1)c1cccnc1 (stereo unspecified)",
    "class.assignment": "inactive"
  },
  {
    "compound": "CC1CN(C(=O)c2ccc(NS(=O)(=O)c3ccc(C(C)(C)C)cc3)cc2)CC(C)O1 (stereo unspecified)",
    "class.assignment": "inactive"
  },
  {
    "compound": "Cc1ccc(C)c(S(=O)(=O)N2CCN(C(=O)CCc3nc4ccccc4c(=O)[nH]3)CC2)c1",
    "class.assignment": "inactive"
  },
  {
    "compound": "CCc1cccc(CC)c1NC(=S)NCC(c1cccnc1)N(C)C (stereo unspecified)",
    "class.assignment": "inactive"
  },
  {
    "compound": "CN1CCCC(OC(=O)c2cc(Cl)cc(Cl)c2)C1 (stereo unspecified)",
    "class.assignment": "inactive"
  },
  {
    "compound": "Cc1ccc(COn2c(-c3ccc(Cl)cc3Cl)nc3ncccc32)cc1",
    "class.assignment": "inactive"
  },
  {
    "compound": "CCCCC(c1nnnn1CC1CCCO1)N1CCN(c2nc3ccccc3s2)CC1 (stereo unspecified)",
    "class.assignment": "inactive"
  },
  {
    "compound": "O=C(NCCc1ccccn1)C(F)(F)C(F)(F)C(F)(F)C(F)(F)C(F)(F)C(F)F",
    "class.assignment": "inactive"
  }
]

Exercise: Tell me the assay call for O=C(CCc1ccccc1)NNC(=S)NC(=O)c1ccc(Cl)cc1 please.
Key: inactive

Exercise: Another: Cc1cc(C)cc(C(=O)N(CCc2ccccc2)C2=CC3CCC(C2)N3C)c1 (stereo unspecified)
Key: inactive

Exercise: Another: COC(=O)C1=NN(C(=O)c2cccc(Br)c2)C(O)(c2ccc(Cl)cc2)C1 (stereo unspecified)
Key: inactive

Exercise: Another: CCCN(CCC)CCNC(=S)Nc1ccc2nc3n(c(=O)c2c1)CCCCC3
Key: inactive

Exercise: Another: COc1ccc(C(CNC(=O)c2cccc(S(=O)(=O)NCc3ccccc3)c2)N(C)C)cc1 (stereo unspecified)
Key: inactive

Exercise: Another: Cc1onc(-c2ccccc2)c1C(=O)NC(=S)NNC(=O)c1ccco1
Key: inactive

Exercise: Another: CCCN(CCC)CCCNC(=O)C1CCN(S(=O)(=O)c2cccc3nsnc23)CC1
Key: inactive

Exercise: Another: CN(C)CCCN(C(=O)c1ccc(S(=O)(=O)N(C)Cc2ccccc2)cc1)c1nc2cc3c(cc2s1)OCO3
Key: inactive

Exercise: Another: Cc1cc(NC(=O)c2cnn3cccnc23)nn1CC(=O)Nc1cccnc1
Key: active

Exercise: Another: CCN1CCN(c2c(S(=O)(=O)c3ccc(C)c(C)c3)cnc3ccc(F)cc23)CC1
Key: inactive

Exercise: Another: CCN1CCN(c2c(Cl)cccc2NC(=O)c2ccc3nsnc3c2)CC1
Key: active

Exercise: Another: CCn1cc(CN2CCC(n3nccc3NC(=O)CCOc3ccccc3)CC2)cn1
Key: inactive

Exercise: Another: CN(C)C1(CNC(=O)CC(NC(=O)c2ccccc2Cl)c2ccccc2)CCCCC1 (stereo unspecified)
Key: inactive

* * *

Molecular target: Potassium voltage-gated channel subfamily KQT member 2 (Rattus norvegicus)
Assay: rat KCNQ2 channel potentiation, selectivity assay for KCNQ1 potentiator project, KCNQ2-CHO-K1 cells (AID 493009);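 note: assay conditions were tuned for KCNQ1 rather than KCNQ2 modulators; signal is max minus min fluorescence divided by baseline after thallium stimulus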
Conditions: FluxOR thallium flux fluorescence, at 10 µM, scaled: buffer 0, activator control 100
The source made the active and inactive calls.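 Rule for the calls: active = mean duplicate potentiation above the buffer control mean plus 5 SD of buffer wells; inactive = the rest.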
Please answer using one outcome listed in true (1) (active), false (0) (inactive)

[
  {
    "compound": "c1ccc2c(c1)CSc1sccc1C2=C1CCNCC1",
    "study.target": "Potassium voltage-gated channel subfamily KQT member 2 (Rattus norvegicus)",
    "class.assignment": "false (0)"
  },
  {
    "compound": "COc1ccc(C(=O)NNC(=S)NC(=O)c2ccccc2)cc1",
    "study.target": "Potassium voltage-gated channel subfamily KQT member 2 (Rattus norvegicus)",
    "class.assignment": "true (1)"
  }
]

Exercise: Tell me the assay call for CO/N=C/CC(=O)Nc1ccc(F)cc1F please.
Key: false (0)

Exercise: Another: COc1cc(OC)cc(C(=O)NC(=S)NNC(=O)[C@H]2C[C@@H]2c2ccccc2)c1
Key: false (0)

Exercise: Another: Cn1c(=S)[nH]c2scc(-c3cccs3)c2c1=O
Key: true (1)

Exercise: Another: Nc1nc(COc2ccccc2C=O)nc(Nc2ccccc2)n1
Key: false (0)

Exercise: Another: COc1ccc(C)cc1-n1c(SCC(=O)Nc2cc(C)on2)nc2ccccc2c1=O
Key: false (0)

Exercise: Another: Cc1ccc(CSc2nc3ccccc3c(=O)n2CCCC(=O)NCc2ccco2)cc1
Key: false (0)

Exercise: Another: Cc1c(C(=O)Nc2ccc(F)cc2)oc2ccc(S(=O)(=O)N3CC(C)CC(C)C3)cc12 (stereo unspecified)
Key: false (0)

Exercise: Another: Cc1ccc(/C(O)=C/C(=O)C(=O)NC23CC4CC(CC(C4)C2)C3)cc1
Key: true (1)

Exercise: Another: Cc1ccc(OCC(=O)NNC(=S)NC(=O)C(C)(C)C)c(Br)c1
Key: true (1)

* * *

Target: Potassium voltage-gated channel subfamily KQT member 1 (Homo sapiens)
Test: KCNQ1 potassium channel potentiators, confirmation, FluxOR thallium flux, CHO cells, duplicates (AID 493007);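 for outcome: cells depolarized by a potassium plus thallium sulfate stimulus after compound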
Conditions: KCNQ1 cell line, FluxOR thallium flux fluorescence, at 10 µM, % of reference activator effect, buffer zero
Calls of active or inactive are those of the source.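 The calls were made as follows: active = potentiation averaged over duplicate wells exceeding buffer-only control mean by more than 3 SD; inactive = the rest.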
Please answer using one outcome listed in y (active), n (inactive)

Look over these answered cases.
[
  {
    "molecule": "CSc1nnc(-c2ccccc2)o1",
    "study.target": "Potassium voltage-gated channel subfamily KQT member 1 (Homo sapiens)",
    "class.assignment": "n"
  },
  {
    "molecule": "CN(C(=O)c1ccco1)c1nnc(-c2ccc(F)cc2)s1",
    "study.target": "Potassium voltage-gated channel subfamily KQT member 1 (Homo sapiens)",
    "class.assignment": "n"
  },
  {
    "molecule": "Cn1ccnc1SCC(=O)NC1CC1",
    "study.target": "Potassium voltage-gated channel subfamily KQT member 1 (Homo sapiens)",
    "class.assignment": "n"
  },
  {
    "molecule": "CN(C(=O)c1ccc2c(c1)OCO2)C1CCCCC1",
    "study.target": "Potassium voltage-gated channel subfamily KQT member 1 (Homo sapiens)",
    "class.assignment": "n"
  },
  {
    "molecule": "O=C(c1cccnc1)N1N=C2CCCCCC2C1(O)C(F)(F)F (stereo unspecified)",
    "study.target": "Potassium voltage-gated channel subfamily KQT member 1 (Homo sapiens)",
    "class.assignment": "n"
  }
]

Exercise: Tell me the assay call for Oc1[nH]c2ccc(Br)cc2c1N=NC(=S)NCC1CCCO1 (stereo unspecified) please.
Key: y

Exercise: Another: O=C(NNc1nc2c(F)cccc2s1)c1cc(=O)c2ccccc2o1
Key: n

Exercise: Another: Cc1ccc(N2C(=O)N3[C@H](c4ccc(F)cc4)[C@@H]4C(=O)N(C5CCCCC5)C(=O)[C@@H]4[C@]3(Cc3ccccc3)C2=O)cc1
Key: n

Exercise: Another: COc1ccc(/C=C2\SC(=O)NC2=S)cc1OC
Key: y

Exercise: Another: COc1ccc(NC2=NC3(CCCCC3)N=C(N)N2)cc1
Key: n

Exercise: Another: O=S(=O)(c1cc(F)cc(F)c1)N1CCN(c2ncccn2)CC1
Key: n

* * *

System: TRPC4 beta (transient receptor potential cation channel C4), mouse
Assay: activators of mouse TRPC4 channel, confirmation, cell-based, Fluo4 calcium, HEK293 TRPC4beta/mu-opioid, duplicates, 10 µM (AID 2426)
Settings: Fluo4 calcium fluorescence, at 10 µM
The source made the active and inactive calls.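 How the source made its calls: active means fluorescence ratio normalized to control raised more than 50% in primary screen plus both repeat runs; inactive means the rest.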
Please answer using one outcome listed in active, inactive

Look over these answered cases.
[
  {
    "compound": "CCOc1ccc2ncc(C(=O)c3ccc(OC)cc3)c(N3CCN(CC)CC3)c2c1",
    "class.assignment": "active"
  },
  {
    "compound": "CN(CCc1ccccn1)C(=O)CC1C(=O)NCCN1Cc1ccccc1C(F)(F)F (stereo not drawn)",
    "class.assignment": "active"
  },
  {
    "compound": "CCc1cccc(CC)c1NC(=S)NCC(c1cccnc1)N(C)C (stereo not drawn)",
    "class.assignment": "active"
  },
  {
    "compound": "COc1ccc(-n2cc(CNCCc3ncc(C)[nH]3)c(-c3ccccc3Cl)n2)cc1",
    "class.assignment": "active"
  },
  {
    "compound": "CCCC(=O)N1CCc2cc(-c3nc(N)sc3C)ccc21",
    "class.assignment": "active"
  },
  {
    "compound": "CN(C)CCN(C(=O)c1cccc2ccccc12)c1nc2cc3c(cc2s1)OCO3",
    "class.assignment": "inactive"
  }
]

Please examine the following record next.
Exercise: Tell me the assay call for CCOC(=O)c1oc2ccc(OC)cc2c1NC(=O)CN1CCN(C)CC1 please.
Key: inactive
